test: Peak plasma concentration in child with invasive aspergillosis at 30 mg/day for 5 days measured on last day of therapy; type: ADME, organism-based; design: dose 30 mg/day; details: human
Attribute measured: Cmax (ng/mL)
Give bare numbers, in ng/mL.

# Cmax of CC[C@H](C)C[C@H](C)CCCCCCCCC(=O)N[C@H]1C[C@@H](O)[C@@H](NCCN)NC(=O)[C@@H]2[C@@H](O)CCN2C(=O)[C@H]([C@H](O)CCN)NC(=O)[C@H]([C@H](O)[C@@H](O)c2ccc(O)cc2)NC(=O)[C@@H]2C[C@@H](O)CN2C(=O)[C@H]([C@@H](C)O)NC1=O = 11500
